Recorded values, source patent US20200399262A1.

system: LOX IMVI; assay: NCI60 screen cytotoxicity; type: cell-based; details: Homo sapiens, Melanoma, read-out: Compound B1 EC50
ASSAY METRIC: EC50

Exam item: Given CN(C)CC(=O)NCC(=O)N1C/C(=C\c2ccc(C#N)cc2)C(=O)/C(=C/c2ccc(C#N)cc2)C1 [Compound B1] , state its recorded EC50.
Marked response: < 300 nM

----------
tested on: SK-MEL-2; assay: Cell viability panel, CyQUANT Direct; format: cell-based; settings: Homo sapiens, Melanoma, 48 hours, read-out: Compound EC50
pEC50: −log10 of the molar value.
ASSAY METRIC: pEC50

Exam item: Given CN(C)CCCS(=O)(=O)N1C/C(=C\c2ccc(C#N)cc2)C(=O)/C(=C/c2ccc(C#N)cc2)C1 , state its recorded pEC50.
Marked response: > 6.52
